Recorded values, source patent US7163946B2.

# target.of.assay: UniProt:P06401
# method.summary: hPR cotransfection assay in CV-1 cells, antagonist mode
# Format: cell-based
# applied.conditions: CV-1 cells; maximal inhibition of reference agonist at EC50 concentration
value.type: hPR Antagonist CV-1 Cells Eff. (%)

[
  {
    "molecule": "CC#C[C@]1(O)CC[C@H]2[C@@H]3CCC4=CC(=O)CCC4=C3[C@@H](c3ccc(N(C)C)cc3)C[C@@]21C [RU486, mifepristone, reference compound]",
    "result": "94%"
  },
  {
    "molecule": "CC1=CC(C)(C)Nc2ccc3c(c21)C(c1ccc(Cl)c(C)c1)Oc1c(F)cc(F)cc1-3 (single isomer, unassigned; (+)) [Compound 39]",
    "result": "62%"
  }
]

* * *

# target.of.assay: hPR (Homo sapiens, UniProt P06401)
# Sequence (P06401 whole entry): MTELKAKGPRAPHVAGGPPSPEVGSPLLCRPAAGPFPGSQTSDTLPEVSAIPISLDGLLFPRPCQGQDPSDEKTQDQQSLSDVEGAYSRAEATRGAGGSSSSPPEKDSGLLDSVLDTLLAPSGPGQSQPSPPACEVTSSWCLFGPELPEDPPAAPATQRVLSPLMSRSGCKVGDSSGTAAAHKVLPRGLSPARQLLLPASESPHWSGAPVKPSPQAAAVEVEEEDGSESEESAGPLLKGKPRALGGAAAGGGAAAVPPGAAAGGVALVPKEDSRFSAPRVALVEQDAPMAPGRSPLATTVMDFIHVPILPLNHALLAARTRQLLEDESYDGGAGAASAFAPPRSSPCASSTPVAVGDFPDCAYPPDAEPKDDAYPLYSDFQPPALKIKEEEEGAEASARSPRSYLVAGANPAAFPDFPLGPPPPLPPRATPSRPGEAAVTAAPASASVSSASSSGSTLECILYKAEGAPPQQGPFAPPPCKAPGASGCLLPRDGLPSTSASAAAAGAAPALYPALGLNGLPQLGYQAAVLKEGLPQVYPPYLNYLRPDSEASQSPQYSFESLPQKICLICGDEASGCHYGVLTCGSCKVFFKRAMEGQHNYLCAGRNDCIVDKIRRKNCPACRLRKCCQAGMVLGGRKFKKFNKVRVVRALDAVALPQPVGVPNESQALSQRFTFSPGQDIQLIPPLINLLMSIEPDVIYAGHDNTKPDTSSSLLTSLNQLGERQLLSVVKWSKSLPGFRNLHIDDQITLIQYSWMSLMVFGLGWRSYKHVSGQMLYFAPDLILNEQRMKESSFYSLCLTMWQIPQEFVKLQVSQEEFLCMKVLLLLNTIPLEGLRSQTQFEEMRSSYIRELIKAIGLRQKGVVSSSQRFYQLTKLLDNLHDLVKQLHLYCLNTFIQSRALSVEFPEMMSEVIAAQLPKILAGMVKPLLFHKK
# method.summary: hPR cotransfection assay in CV-1 cells, agonist mode
# Type: cell-based
# applied.conditions: CV-1 cells; read-out: hPR Agonist CV-1 Cells EC50
value.type: EC50

[
  {
    "molecule": "CC1=CC(C)(C)Nc2ccc3c(c21)/C(=C/c1ccncc1C)Oc1c(F)cc(F)cc1-3",
    "result": "2.8 nM"
  },
  {
    "molecule": "CC1=CC(C)(C)Nc2ccc3c(c21)/C(=C/c1cc(F)ccc1C)Oc1c(F)cc(F)cc1-3",
    "result": "1.4 nM"
  },
  {
    "molecule": "C#C[C@]1(O)CC[C@H]2[C@@H]3CCC4=CC(=O)CC[C@@H]4[C@H]3C(=C)C[C@@]21CC [3-ketodesogestrel, reference compound]",
    "result": "0.1 nM"
  },
  {
    "molecule": "CC1=CC(C)(C)Nc2ccc3c(c21)C(c1ccc(Cl)c(C)c1)Oc1c(F)cc(F)cc1-3 (racemic) [Compound 37]",
    "result": "1.24 nM"
  },
  {
    "molecule": "CC1=CC(C)(C)Nc2ccc3c(c21)/C(=C/c1cc(F)ccc1F)Oc1c(F)cc(F)cc1-3",
    "result": "2.9 nM"
  },
  {
    "molecule": "CC1=CC(C)(C)Nc2ccc3c(c21)/C(=C/C#N)Oc1c(F)cc(F)cc1-3",
    "result": "9.4 nM"
  },
  {
    "molecule": "CC1=CC(C)(C)Nc2ccc3c(c21)C(c1ccccc1)Oc1c(F)cc(F)cc1-3 (racemic)",
    "result": "3.5 nM"
  }
]

* * *

# target.of.assay: human estrogen receptor (hER) (Homo sapiens)
# Sequence (P03372 whole entry): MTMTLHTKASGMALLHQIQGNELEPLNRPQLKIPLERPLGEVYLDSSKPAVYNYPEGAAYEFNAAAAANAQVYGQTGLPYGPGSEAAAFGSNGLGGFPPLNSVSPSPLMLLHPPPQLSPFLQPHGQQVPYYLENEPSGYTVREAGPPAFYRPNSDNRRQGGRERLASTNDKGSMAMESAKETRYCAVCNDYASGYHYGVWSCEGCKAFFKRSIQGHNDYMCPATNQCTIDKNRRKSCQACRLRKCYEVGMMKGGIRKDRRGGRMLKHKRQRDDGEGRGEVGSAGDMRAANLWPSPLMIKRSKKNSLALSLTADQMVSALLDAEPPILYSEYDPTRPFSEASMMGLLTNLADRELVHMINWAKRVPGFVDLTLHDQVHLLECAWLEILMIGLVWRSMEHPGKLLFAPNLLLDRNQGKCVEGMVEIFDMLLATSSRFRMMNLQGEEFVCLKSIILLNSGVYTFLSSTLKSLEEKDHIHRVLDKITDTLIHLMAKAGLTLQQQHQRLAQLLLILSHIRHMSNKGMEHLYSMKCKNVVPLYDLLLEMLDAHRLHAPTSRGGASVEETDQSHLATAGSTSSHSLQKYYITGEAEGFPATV
# method.summary: hER cotransfection assay (potency ratio to hPR)
# Format: cell-based
# applied.conditions: receptor-selectivity potency ratio, cotransfection assays

[
  {
    "compound": "COc1ccccc1/C=C1\\Oc2c(F)cc(F)cc2-c2ccc3c(c21)C(C)=CC(C)(C)N3",
    "hER EC50 or IC50/hPR EC50": ">1000"
  },
  {
    "compound": "CC1=CC(C)(C)Nc2ccc3c(c21)/C(=C/c1cc(F)ccc1F)Oc1c(F)cc(F)cc1-3",
    "hER EC50 or IC50/hPR EC50": ">1000"
  },
  {
    "compound": "CC1=CC(C)(C)Nc2ccc3c(c21)/C(=C/c1ccsc1)Oc1c(F)cc(F)cc1-3",
    "hER EC50 or IC50/hPR EC50": ">1000"
  },
  {
    "compound": "CC1=CC(C)(C)Nc2ccc3c(c21)/C(=C/Br)Oc1c(F)cc(F)cc1-3",
    "hER EC50 or IC50/hPR EC50": ">1000"
  },
  {
    "compound": "CC1=CC(C)(C)Nc2ccc3c(c21)/C(=C/c1cccc(F)c1)Oc1c(F)cc(F)cc1-3",
    "hER EC50 or IC50/hPR EC50": ">1000"
  },
  {
    "compound": "CC1=CC(C)(C)Nc2ccc3c(c21)/C(=C/c1cc(F)ccc1C)Oc1c(F)cc(F)cc1-3",
    "hER EC50 or IC50/hPR EC50": ">1000"
  },
  {
    "compound": "CC1=CC(C)(C)Nc2ccc3c(c21)/C(=C/c1cccs1)Oc1c(F)cc(F)cc1-3",
    "hER EC50 or IC50/hPR EC50": ">1000"
  },
  {
    "compound": "CC1=CC(C)(C)Nc2ccc3c(c21)C(c1cccc(C)c1)Oc1c(F)cc(F)cc1-3 (racemic)",
    "hER EC50 or IC50/hPR EC50": ">1000"
  }
]

* * *

# target.of.assay: UniProt:P10275
# Sequence (P10275 1-920): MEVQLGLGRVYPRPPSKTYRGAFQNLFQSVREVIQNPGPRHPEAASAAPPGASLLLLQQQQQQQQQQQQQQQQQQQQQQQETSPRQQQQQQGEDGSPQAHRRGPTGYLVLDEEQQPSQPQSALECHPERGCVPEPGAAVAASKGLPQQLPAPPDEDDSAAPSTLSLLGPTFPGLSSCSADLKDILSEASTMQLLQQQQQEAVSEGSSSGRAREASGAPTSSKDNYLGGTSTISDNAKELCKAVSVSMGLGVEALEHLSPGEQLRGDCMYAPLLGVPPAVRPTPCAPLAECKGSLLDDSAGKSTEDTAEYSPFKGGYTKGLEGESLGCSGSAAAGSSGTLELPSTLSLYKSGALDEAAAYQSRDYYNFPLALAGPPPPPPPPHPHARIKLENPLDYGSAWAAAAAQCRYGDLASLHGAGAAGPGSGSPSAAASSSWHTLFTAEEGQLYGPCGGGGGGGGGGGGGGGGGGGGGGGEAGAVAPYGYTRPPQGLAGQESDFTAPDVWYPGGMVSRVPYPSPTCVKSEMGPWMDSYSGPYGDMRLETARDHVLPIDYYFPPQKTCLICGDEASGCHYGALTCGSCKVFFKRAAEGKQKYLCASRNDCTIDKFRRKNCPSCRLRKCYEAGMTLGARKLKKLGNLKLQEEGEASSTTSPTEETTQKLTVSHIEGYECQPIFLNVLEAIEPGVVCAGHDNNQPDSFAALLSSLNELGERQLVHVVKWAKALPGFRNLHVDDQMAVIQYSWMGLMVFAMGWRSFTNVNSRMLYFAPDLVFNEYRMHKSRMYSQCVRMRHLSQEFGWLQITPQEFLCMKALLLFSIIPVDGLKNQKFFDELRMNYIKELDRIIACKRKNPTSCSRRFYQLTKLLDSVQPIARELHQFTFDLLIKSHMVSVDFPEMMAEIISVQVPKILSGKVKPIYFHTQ
# method.summary: hAR cotransfection assay (potency ratio to hPR)
# Type: cell-based
# applied.conditions: receptor-selectivity potency ratio, cotransfection assays
Please enter rule met where hAR EC50 or IC50/hPR EC50 is greater than or equal to 600, and rule not met where it is lower.

[
  {
    "compound": "COc1ccccc1/C=C1\\Oc2c(F)cc(F)cc2-c2ccc3c(c21)C(C)=CC(C)(C)N3 [Compound 18]",
    "discrete.label": "rule not met"
  },
  {
    "compound": "CC1=CC(C)(C)Nc2ccc3c(c21)/C(=C/c1cc(F)ccc1F)Oc1c(F)cc(F)cc1-3 [Compound 17]",
    "discrete.label": "rule met"
  },
  {
    "compound": "CC1=CC(C)(C)Nc2ccc3c(c21)/C(=C/c1ccsc1)Oc1c(F)cc(F)cc1-3 [Compound 30]",
    "discrete.label": "rule not met"
  },
  {
    "compound": "CC1=CC(C)(C)Nc2ccc3c(c21)/C(=C/c1cccs1)Oc1c(F)cc(F)cc1-3 [Compound 31]",
    "discrete.label": "rule not met"
  },
  {
    "compound": "CC#CC1Oc2c(F)cc(F)cc2-c2ccc3c(c21)C(C)=CC(C)(C)N3 (racemic) [Compound 74]",
    "discrete.label": "rule not met"
  },
  {
    "compound": "CC1=CC(C)(C)Nc2ccc3c(c21)C(c1ccc(Cl)c(C)c1)Oc1c(F)cc(F)cc1-3 (racemic) [Compound 37]",
    "discrete.label": "rule not met"
  },
  {
    "compound": "COc1ccc(F)cc1/C=C1\\Oc2c(F)cc(F)cc2-c2ccc3c(c21)C(C)=CC(C)(C)N3 [Compound 26]",
    "discrete.label": "rule met"
  },
  {
    "compound": "CC1=CC(C)(C)Nc2ccc3c(c21)/C(=C/c1cc(F)ccc1C)Oc1c(F)cc(F)cc1-3 [Compound 19]",
    "discrete.label": "rule met"
  },
  {
    "compound": "CC1=CC(C)(C)Nc2ccc3c(c21)/C(=C/c1ccncc1)Oc1c(F)cc(F)cc1-3 [Compound 14]",
    "discrete.label": "rule not met"
  }
]

* * *

Reported EC50 values follow for various compounds
# target.of.assay: hPR (Homo sapiens)
# method.summary: hPR cotransfection assay in CV-1 cells, agonist mode
# Format: cell-based
# applied.conditions: CV-1 cells; read-out: hPR Agonist CV-1 Cells EC50
value.type: EC50 (nM)

[
  {
    "compound": "CC1=CC(C)(C)Nc2ccc3c(c21)C(CC(=O)c1ccccc1)Oc1c(F)cc(F)cc1-3 (racemic) [Compound 45]",
    "value.modifier": ">",
    "numeric.result": 10000
  },
  {
    "compound": "CC1=CC(C)(C)Nc2ccc3c(c21)/C(=C/c1cccc(F)c1)Oc1c(F)cc(F)cc1-3 [Compound 15]",
    "value.modifier": "=",
    "numeric.result": 3.8
  },
  {
    "compound": "CC#CC1Oc2c(F)cc(F)cc2-c2ccc3c(c21)C(C)=CC(C)(C)N3 (racemic) [Compound 74]",
    "value.modifier": "=",
    "numeric.result": 0.7
  },
  {
    "compound": "CC1=CC(C)(C)Nc2ccc3c(c21)C(c1cc2ccccc2s1)Oc1c(F)cc(F)cc1-3 (racemic) [Compound 63]",
    "value.modifier": "=",
    "numeric.result": 2.3
  },
  {
    "compound": "COc1ccccc1/C=C1\\Oc2c(F)cc(F)cc2-c2ccc3c(c21)C(C)=CC(C)(C)N3 [Compound 18]",
    "value.modifier": "=",
    "numeric.result": 1.3
  },
  {
    "compound": "CC1=CC(C)(C)Nc2ccc3c(c21)C(c1cccc(Cl)c1)Oc1c(F)cc(F)cc1-3 (racemic) [Compound 41]",
    "value.modifier": "=",
    "numeric.result": 1.87
  },
  {
    "compound": "COC1Oc2c(F)cc(F)cc2-c2ccc3c(c21)C(C)=CC(C)(C)N3 (racemic) [Compound 32]",
    "value.modifier": ">",
    "numeric.result": 10000
  },
  {
    "compound": "CC1=CC(C)(C)Nc2ccc3c(c21)C(c1cccc(C)c1)Oc1c(F)cc(F)cc1-3 (racemic) [Compound 34]",
    "value.modifier": "=",
    "numeric.result": 1.2
  },
  {
    "compound": "COc1ccc(F)cc1/C=C1\\Oc2c(F)cc(F)cc2-c2ccc3c(c21)C(C)=CC(C)(C)N3 [Compound 26]",
    "value.modifier": "=",
    "numeric.result": 0.6
  }
]
